The reported measurements were obtained from a polymer gas permeability compilation.

PROPERTY_LABEL: CH4 permeability (Barrer)
Answers are plain numbers, in Barrer.

In the examples that follow, each entry is paired with its recorded CH4 permeability.
*C(=C(*)c1ccc2c(c1)C(C)(C)CC2(C)C)c1ccccc1 (repeat unit) | 29100
*CC(*)C(=O)OCC(F)(F)C(F)(F)C(F)(F)C(F)(F)C(F)(F)C(F)(F)C(F)(F)F (repeat unit) | 57
*Oc1cc2c(cc1O*)C1(c3cc(C(C)(C)C)ccc3-2)c2cc(C(C)(C)C)ccc2-c2cc3c(cc21)Oc1c(C#N)c(*)c(*)c(C#N)c1O3 (repeat unit) | 1700
*/C(C)=C(/*)[Si](C)(C)CCCCCCCC (repeat unit) | 13
*C(=O)c1ccc(C2(c3ccc(C(=O)c4ccc(Oc5ccc(C(=O)c6ccc(Oc7ccc(*)cc7)cc6)cc5)cc4)cc3)OC(=O)c3ccccc32)cc1 (repeat unit) | 0.1

Required: CH4 permeability, one value per molecule below.
1. *C(=C(*)c1cccc(O)c1)c1ccc(C(C)(C)C)cc1 (repeat unit)
2. *CC(*)c1ccncc1 (repeat unit)
3. *Oc1ccc(S(=O)(=O)c2ccc(Oc3ccc(C4(c5ccc(*)c(C)c5)CCCCC4)cc3C)cc2)cc1 (repeat unit)
4. *c1ccc(-c2ccc(Oc3ccc4c(c3)C3(CC4(C)C)CC(C)(C)c4ccc(Oc5ccc(-c6ccc(N7C(=O)c8ccc(C(c9ccc%10c(c9)C(=O)N(*)C%10=O)(C(F)(F)F)C(F)(F)F)cc8C7=O)cc6)cc5C(F)(F)F)cc43)c(C(F)(F)F)c2)cc1 (repeat unit)
5. *Oc1cc2c(cc1O*)C(C)(C)CC1(CC(C)(C)c3cc4c(cc3O1)Oc1c(C#N)c(*)c(*)c(C#N)c1O4)O2 (repeat unit)
6. *C(=C(*)c1ccc2c(ccc3ccccc32)c1)c1ccccc1 (repeat unit)

RESULT:
[490, 0.14, 0.0393, 1.21, 93, 1450]

====

Assignment: determine reported log10 of CO2 permeability for the given compounds.
Log10 applied to CO2 permeability; unit prior to transform: Barrer.

In the examples that follow, each entry is paired with its recorded log10 of CO2 permeability.
*c1cccc(N2C(=O)c3ccc(C(c4ccc5c(c4)C(=O)N(*)C5=O)(C(F)(F)F)C(F)(F)F)cc3C2=O)c1C (repeat unit) | 1.56
*C(=C(*)c1ccc(C(C)C)cc1)c1ccccc1 (repeat unit) | 3.04
*Oc1c(C)cc(C(C)(C)c2cccc(C(C)(C)c3cc(C)c(Oc4ccc(S(=O)(=O)c5ccc(*)cc5)cc4)c(C)c3)c2)cc1C (repeat unit) | 0.85
*C(=C(*)c1ccc2c(ccc3ccccc32)c1)c1ccc([Si](C)(C)C)cc1 (repeat unit) | 3.32
*C1C(*)C2CC1C1CC([Si](C)(C)C)C21 (repeat unit) | 3.72

Required: log10 of CO2 permeability, one value per compound below.
1. *Oc1ccc(-c2c(-c3ccc(C)cc3)c(-c3ccc(C)cc3)c(-c3ccc4c(c3)Oc3c(C#N)c(*)c(*)c(C#N)c3O4)c(-c3ccc(C)cc3)c2-c2ccc(C)cc2)cc1O* (repeat unit)
2. *CC(*)c1ccc(S(=O)(=O)[O-])cc1 (repeat unit)
3. *Oc1ccc(C(=O)c2ccc(Oc3ccc(C(c4ccc(*)cc4)(C(F)(F)F)C(F)(F)F)cc3)cc2)c2ccccc12 (repeat unit)
4. *c1cccc(C(c2cccc(-c3nnc(*)n3-c3ccc(O)cc3)c2)(C(F)(F)F)C(F)(F)F)c1 (repeat unit)
5. *c1ccc(Oc2ccc3ccccc3c2-c2c(Oc3ccc(N4C(=O)c5ccc(C(c6ccc7c(c6)C(=O)N(*)C7=O)(C(F)(F)F)C(F)(F)F)cc5C4=O)cc3C)ccc3ccccc23)c(C)c1 (repeat unit)
6. *c1c(C)c(C(=O)O)c(C)c(N2C(=O)c3ccc(C(c4ccc5c(c4)C(=O)N(*)C5=O)(C(F)(F)F)C(F)(F)F)cc3C2=O)c1C (repeat unit)
7. *C(C)=C(*)CCC (repeat unit)

RESULT:
3.21
0.62
0.78
1.82
1.26
2.16
2.08

Record summary for *c1c(C)cc(-c2cc(C)c(-c3cc(C)c(*)c(C)c3)cc2C)cc1C (repeat unit) : reported log10 of CO2 permeability = 2.56

====

Assignment: determine reported N2 permeability for the given compounds.
Answers are plain numbers, in Barrer.

In the examples that follow, each entry is paired with its recorded N2 permeability.
*c1ccc2c(-c3c(O)ccc4cc(N5C(=O)c6ccc(C(c7ccc8c(c7)C(=O)N(*)C8=O)(C(F)(F)F)C(F)(F)F)cc6C5=O)ccc34)c(O)ccc2c1 (repeat unit) | 0.14
*c1ccc(Oc2ccc(N3C(=O)c4ccc(C(c5ccc6c(c5)C(=O)N(*)C6=O)(C(F)(F)F)C(F)(F)F)cc4C3=O)cc2)cc1 (repeat unit) | 0.797
*C/C(C)=C(\C)C* (repeat unit) | 0.472
*Oc1ccc(S(=O)(=O)c2ccc(Oc3ccc(C(C)(C)c4ccc(*)cc4)cc3)cc2)cc1 (repeat unit) | 0.249
*O[Si](*)(C)CCC(F)(F)F (repeat unit) | 88.3

Required: N2 permeability, one value per compound below.
1. *c1cc(C)c(C)c(N2C(=O)c3ccc(Oc4cc(C(C)(C)C)ccc4Oc4ccc5c(c4)C(=O)N(*)C5=O)cc3C2=O)c1C (repeat unit)
2. *c1ccc(Cc2ccc(N3C(=O)c4ccc(-c5ccc6c(c5)C(=O)N(*)C6=O)cc4C3=O)cc2Br)c(Br)c1 (repeat unit)

RESULT:
2.2
0.0103

====

Assignment: determine reported O2 permeability for the given compounds.
# number then unit; no other words

In the examples that follow, each entry is paired with its recorded O2 permeability.
*c1ccc(-c2ccc(N3C(=O)c4ccc(C(c5ccc6c(c5)C(=O)N(*)C6=O)(C(F)(F)F)C(F)(F)F)cc4C3=O)c(N)c2)cc1N (repeat unit) | 34 Barrer
*c1cc2c(cc1C)-c1cc(C)c(N3C(=O)c4ccc(-c5ccc6c(c5)C(=O)N(*)C6=O)cc4C3=O)cc1S2(=O)=O (repeat unit) | 0.577 Barrer
*c1ccc(Oc2ccc(C3(c4ccc(Oc5ccc(N6C(=O)c7ccc(C(c8ccc9c(c8)C(=O)N(*)C9=O)(C(F)(F)F)C(F)(F)F)cc7C6=O)c(C)c5)cc4)c4ccccc4-c4ccccc43)cc2)cc1C (repeat unit) | 3.62 Barrer

Required: O2 permeability, one value per compound below.
1. *OC1OC(COC(=O)NC(C)(C)C)C(*)C(OC(C)=O)C1OC(C)=O (repeat unit)
2. *c1ccc(-c2ccc(Oc3ccc(C4(c5ccc(Oc6ccc(-c7ccc(N8C(=O)c9ccc(C(c%10ccc%11c(c%10)C(=O)N(*)C%11=O)(C(F)(F)F)C(F)(F)F)cc9C8=O)cc7)cc6C(F)(F)F)cc5)c5ccccc5C(=O)N4c4ccccc4)cc3)c(C(F)(F)F)c2)cc1 (repeat unit)
3. *c1ccc(Oc2ccc3ccccc3c2-c2c(Oc3ccc(N4C(=O)c5ccc(C(c6ccc7c(c6)C(=O)N(*)C7=O)(C(F)(F)F)C(F)(F)F)cc5C4=O)cc3C)ccc3ccccc23)c(C)c1 (repeat unit)
4. *Oc1c(C)cc(C(c2cc(C)c(Oc3ccc(S(=O)(=O)c4ccc(*)cc4)cc3)c(C)c2)(C(F)(F)F)C(F)(F)F)cc1C (repeat unit)
5. *Oc1cc2c(cc1O*)C1(CC2(C)C)CC(C)(C)c2cc3oc4cc5c(=O)n(-c6c(C)c(C)c(N7C(=O)c8cc(*)c(*)cc8C7=O)c(C)c6C)c(=O)c5cc4oc3cc21 (repeat unit)
6. */C=C/C1CC(*)CC1[Si](C)(C)C (repeat unit)
7. *Nc1ccc(Oc2ccc(Oc3ccc(NC(=O)CN4C(=O)c5ccc(C(*)=O)cc5C4=O)cc3)cc2)cc1 (repeat unit)

RESULT:
1. 4.3 Barrer
2. 10.2 Barrer
3. 3.35 Barrer
4. 18 Barrer
5. 85 Barrer
6. 30 Barrer
7. 0.185 Barrer

Required: O2 permeability, one value per compound below.
1. *c1ccc(S(=O)(=O)c2ccc(N3C(=O)c4ccc(-c5ccc6c(c5)C(=O)N(*)C6=O)cc4C3=O)cc2)cc1 (repeat unit)
2. *c1ccc(-c2nc3cc(-c4ccc5[nH]c(*)nc5c4)ccc3[nH]2)c(Br)c1 (repeat unit)
3. *C(=C(*)c1ccc([Si](C)(C)CCCCCCCC)cc1)c1ccccc1 (repeat unit)
4. *C(C)=C(*)c1ccccc1 (repeat unit)

RESULT:
1. 0.348 Barrer
2. 0.006 Barrer
3. 34 Barrer
4. 36.8 Barrer

====

PROPERTY_LABEL: log10(CH4 permeability) (log10 of the value in Barrer)
Log10 applied to CH4 permeability; unit prior to transform: Barrer.

*c1c(C)c(C)c(N2C(=O)c3ccc(Oc4cc(C)ccc4Oc4ccc5c(c4)C(=O)N(*)C5=O)cc3C2=O)c(C)c1C (repeat unit) | -0.33

Required: log10(CH4 permeability), one value per compound below.
1. *CC(*)C(=O)OCCCCCCCCCCCCCC (repeat unit)
2. *c1ccc(Cc2ccc(N3C(=O)c4ccc(C(c5ccc6c(c5)C(=O)N(*)C6=O)(C(F)(F)F)C(F)(F)F)cc4C3=O)c(C)c2)cc1C (repeat unit)
3. *c1cc2c(cc1O)C1(CC2(C)C)CC(C)(C)c2cc(N3C(=O)C4C5C=CC(C6C(=O)N(*)C(=O)C56)C4C3=O)c(O)cc21 (repeat unit)
4. *CC=C(C*)[Si](C)(OC(C)C)OC(C)C (repeat unit)
5. *Nc1ccc(C(C)(C)c2ccc(NC(=O)c3ccc(Oc4cc(C(C)(C)C)c(Oc5ccc(C(*)=O)cc5)cc4C(C)(C)C)cc3)cc2)cc1 (repeat unit)

RESULT:
[1.81, -0.70, 0.66, 1.80, -0.33]
